- TEST: NCI Yeast Anticancer Drug Screen. Data for the rad50 strain (AID 155);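 also: 0% = growth of vehicle-only cultures of the same strain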
- DETAILS: S. cerevisiae rad50 strain growth inhibition; at 50.0 µM; stronger effect = higher value
About 79,000 compounds went through this panel and 15% of them were active in at least one assay; those are over-represented in the sample as a whole. Active and inactive are the calls of the source. Rule as the data show it: active = growth inhibition above about 70%; inactive = the rest.
Measured growth inhibition values are reported for all entries that follow.

Consider the worked cases shown below.
{"COMPOUND": "O=[N+]([O-])c1ccc(SP(=S)(c2ccccc2)c2ccccc2)c([N+](=O)[O-])c1", "REPORTED RESULT": "67.3% (inactive)"}
{"COMPOUND": "CCOC(=O)C1=C(C)N2CCCOC2(C)C(C(=O)OC)C1c1cccc([N+](=O)[O-])c1 (centres undefined)", "REPORTED RESULT": "38% (inactive)"}
{"COMPOUND": "O=C(CN1CC1)NCCCCCCCNC(=O)CN1CC1", "REPORTED RESULT": "-13.4% (inactive)"}
{"COMPOUND": "Cc1cc(N(CCCl)CCCl)ccc1C1N(Cc2ccc(N(CCCl)CCCl)cc2Cl)CCCN1Cc1ccc(N(CCCl)CCCl)cc1Cl", "REPORTED RESULT": "97.8% (active)"}
{"COMPOUND": "COc1cc2c(cc1O)C(=O)O[C@@H]1CC=C3CCN(C)[C@H]3[C@H]21", "REPORTED RESULT": "3.4% (inactive)"}
{"COMPOUND": "CC1C/C(=C\\N=[N+]=[N-])C(=O)O1 (centres undefined)", "REPORTED RESULT": "-11.4% (inactive)"}
{"COMPOUND": "C/C(=N/NC(N)=S)c1ccc(Cl)cc1", "REPORTED RESULT": "96.5% (active)"}
{"COMPOUND": "COc1cc([C@@H]2c3cc(O)c(OC)cc3C[C@H]3C(=O)OC[C@@H]23)ccc1O", "REPORTED RESULT": "20.1% (inactive)"}
{"COMPOUND": "O=[As](O)(O)c1ccccc1Cl", "REPORTED RESULT": "14.1% (inactive)"}
{"COMPOUND": "CN1CCN(C(=O)Cc2c[nH]c3ccccc23)CC1", "REPORTED RESULT": "-1.25% (inactive)"}

Using the record for N.N.N.N.O=S(=O)([O-])[O-].[Co+3].[OH3+].[OH3+] , state its measured growth inhibition.
2.25% (inactive)

Give the reported value of growth inhibition for this record: [Fe+5].[O-][Cl+3]([O-])([O-])O.[O-]c1ccccc1C=NCCN1CC1.[O-]c1ccccc1C=NCCN1CC1
1.8% (inactive)

Recall and state the measured growth inhibition for CCCCCCC[CH2][Sn][CH2]CCCCCCC.Nc1ncnc2c1ncn2C1OC(CO)C2[OH+][OH+]C21 (centres undefined) .
19.9% (inactive)

Output measured growth inhibition for this item: O=C1CCC(=O)N1SC(Cl)(Cl)Cl
99.7% (active)

Dear colleague, please send me the reported growth inhibition for C/C=C/C1(CCCC)C(=O)NC(=O)NC1=O when you can.
9.8% (inactive)

Consider the compound O=C(O)C(C(=O)O)P(=S)(S)c1ccccc1 (centres undefined) and give its recorded growth inhibition.
-2.1% (inactive)

Could you please provide reported growth inhibition for COC(=O)C1C(OC(=O)C(Cl)(c2ccccc2)c2ccccc2)CC2CCC1N2C (centres undefined) ? Thanks!
-5.25% (inactive)

Using the record for Cc1c2n(c3ccccc13)CC1CON(C)C21 (centres undefined) , state its measured growth inhibition.
-14.4% (inactive)

Specify reported growth inhibition for the compound shown: CO[C@H]1Nc2c(ccc(C)c2O)C(=O)N2C=C(/C=C/C(N)=O)C[C@@H]12
89.2% (active)
